- System: Mtb H37Rv thyX Tet-OFF conditional knockdown mutant
- Type: cell-based, Mycobacterium tuberculosis
Readout: MIC90 shift (increase in potency) upon ThyX depletion

[[record]]
smiles_text = "O=C1C=C(Cc2ccc(F)cc2)C(=O)c2ccccc21"
measured_value = "no shift"

[[record]]
smiles_text = "CCS(=O)(=O)N1CCN(C2=C(Cl)C(=O)c3ccccc3C2=O)CC1"
measured_value = "~ 2 fold"

[[record]]
smiles_text = "O=C1C(Cl)=C(N2CCN(C(=O)c3ccc(F)cc3)CC2)C(=O)c2ccccc21"
measured_value = "no shift"

[[record]]
smiles_text = "CC(=O)N(C1=C(Cl)C(=O)c2ccccc2C1=O)c1cccc(F)c1"
measured_value = "no shift"

[[record]]
smiles_text = "COc1ccc(CC2=CC(=O)c3ccccc3C2=O)cc1"
measured_value = "no shift"

